Test: Multiple ascending dose IV study in healthy adult subjects (safety, PK)
Assay type: in vivo, human
Conditions: human, plasma, intravenous, 200 mg, 200 mg weekly, Day 1; read-out: AUC0-168
*1 amine or outer side, *2 acyl side, *3 side chain or, on linkers, in order; H or OH if unused. Where a SMILES comes first, the peptide text is derived from it. Bridges are numbered along the chain shown (N, C = ends). [ ]: non-standard residue; d: D form. The star is where a group is joined. Orn(4R-OH,5R-OCH2CH2NMe3+) = C[N+](C)(C)CCO[C@@H](N[*:3])[C@H](O)C[C@H](N[*:1])C(=O)[*:2]; pTerphenylCO(4''-OnC5H11) = CCCCCOc1ccc(-c2ccc(-c3ccc(C(=O)*)cc3)cc2)cc1; hTyr(3S-OH,4S-OH) = N[C@H](C(=O)O)[C@H](O)[C@@H](O)c1ccc(O)cc1; Pro(3S-OH,4S-Me) = C[C@H]1CN[C@H](C(=O)O)[C@H]1O; Hyp = O=C(O)[C@@H]1C[C@@H](O)CN1
quantity: AUC(0-t) (µg·h/mL)

>>> experimental_result("CCCCCOc1ccc(-c2ccc(-c3ccc(C(=O)N[C@H]4C[C@@H](O)[C@@H](OCC[N+](C)(C)C)NC(=O)[C@@H]5[C@@H](O)[C@@H](C)CN5C(=O)[C@H]([C@@H](C)O)NC(=O)[C@H]([C@H](O)[C@@H](O)c5ccc(O)cc5)NC(=O)[C@@H]5C[C@@H](O)CN5C(=O)[C@H]([C@@H](C)O)NC4=O)cc3)cc2)cc1 [CD101] ({pTerphenylCO(4''-OnC5H11)}-[Orn(4R-OH,5R-OCH2CH2NMe3+)]T[Hyp][hTyr(3S-OH,4S-OH)]T[Pro(3S-OH,4S-Me)]; lactam 1-C)")
570
